# assay-notes: recombinant UMI read abundance after kanamycin selection (control-corrected) (log10(CPM+1)); higher = more efficient recombination; extreme values may be limits of the assay; sequences stand for … in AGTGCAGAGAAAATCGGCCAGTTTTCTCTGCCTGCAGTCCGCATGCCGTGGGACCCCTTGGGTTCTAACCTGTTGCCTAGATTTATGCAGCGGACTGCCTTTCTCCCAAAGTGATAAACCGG…AGGTTGGTTTCACT; site = the 11-nt donor;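 also: IS621 bridge recombinase in Escherichia coli cells against a fixed T5 target plasmid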
The following sequences are shown together with reported recombinant UMI read abundance (log10) values.
recorded-metric: recombinant UMI read abundance (log10)

record-sequence: AGGACTACATGGACCGGTTTTCCCGGTAATCCGTATTTGAC (site AGCACTACTGT)
observed: 0.0103
//
record-sequence: CGGCCGTCATGGACCGGTTTTCCCGGTAATCCGTATTTGAT (site CGGCCGTCTAT)
observed: 0.968
//
record-sequence: AGTAATTCATGGACCGGTTTTCCCGGTAATCCGTATTTGAC (site AGTAATTCTGT)
observed: 0.17
//
record-sequence: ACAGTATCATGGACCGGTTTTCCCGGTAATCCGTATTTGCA (site ACCGTAACTTG)
observed: 0.0063
//
record-sequence: TAGATAGCATGGACCGGTTTTCCCGGTAATCCGTATTTGAA (site TAGGTAGCTTT)
observed: 0.0819
//
record-sequence: CGGCATGCATGGACCGGTTTTCCCGGTAATCCGTATTTGTT (site CGGCATGCTAA)
observed: 2.31
//
record-sequence: GCTCCTGCATGGACCGGTTTTCCCGGTAATCCGTATTTGCC (site GCTCCTGCTGG)
observed: 0.921
//
record-sequence: CCTGAAGCATGGACCGGTTTTCCCGGTAATCCGTATTTGAT (site CCTGAAGCTAT)
observed: 0.209
//
record-sequence: CAGGAGTCATGGACCGGTTTTCCCGGTAATCCGTATTTGCC (site CTGGAGTCTGG)
observed: 1.73
//
record-sequence: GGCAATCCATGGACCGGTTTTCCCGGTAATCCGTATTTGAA (site GGCAATACTTT)
observed: 0.0044
//
record-sequence: AGATCATCATGGACCGGTTTTCCCGGTAATCCGTATTTGCT (site TGATCATCTAG)
observed: 1.75
//
record-sequence: GATGATTCATGGACCGGTTTTCCCGGTAATCCGTATTTGTT (site GACGATTCTAA)
observed: 0
//
record-sequence: GGGGAACCATGGACCGGTTTTCCCGGTAATCCGTATTTGCA (site GGGGCACCTTG)
observed: 0
//
record-sequence: TTTGGGGCATGGACCGGTTTTCCCGGTAATCCGTATTTGAC (site TTTGGGGCTGT)
observed: 1.57
//
record-sequence: TAACTAGCATGGACCGGTTTTCCCGGTAATCCGTATTTGCG (site TAACTAGCTCG)
observed: 0
//
record-sequence: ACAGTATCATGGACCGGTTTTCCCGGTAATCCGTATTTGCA (site ACATTGTCTTG)
observed: 1.03
//
record-sequence: AATGTGTCATGGACCGGTTTTCCCGGTAATCCGTATTTGAC (site AATGTCTCTGT)
observed: 0
//
record-sequence: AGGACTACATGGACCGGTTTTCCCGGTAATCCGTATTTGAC (site ATGACTACTGT)
observed: 1.13
//
record-sequence: AGAAAGGCATGGACCGGTTTTCCCGGTAATCCGTATTTGAT (site AGAAAGGCTAA)
observed: 0.418
//
record-sequence: CCTTTACCATGGACCGGTTTTCCCGGTAATCCGTATTTGAA (site CCTTTACCTTT)
observed: 0.019
//
record-sequence: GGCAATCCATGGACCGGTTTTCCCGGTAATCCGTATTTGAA (site AGCAATCCTTT)
observed: 0.00634
//
record-sequence: CCCATATCATGGACCGGTTTTCCCGGTAATCCGTATTTGTC (site TCCATATCTGA)
observed: 0
//
record-sequence: CGACGACCATGGACCGGTTTTCCCGGTAATCCGTATTTGGG (site CGAAGACCTCC)
observed: 0.0167
//
record-sequence: GCAACCTCATGGACCGGTTTTCCCGGTAATCCGTATTTGCC (site GCAACCTCTGG)
observed: 0.0535
//
record-sequence: AAGTAGGCATGGACCGGTTTTCCCGGTAATCCGTATTTGGC (site ACGTAGGCTGC)
observed: 1.04

Reference source: the supplement of paper PMC11208160
